experiment: Hydrolase activity in dog intestine microsomes; type: in vitro ADME; details: dog, dog intestine microsomes, pH 7.4; DIM 0.01 mg/mL, 1 min; read-out: Km of vicagrel hydrolysis
Measurement label: Km at 1 min (µM)
Kindly answer with a numeric value in µM, unit omitted.

Entry COC(=O)[C@H](c1ccccc1Cl)N1CCc2sc(OC(C)=O)cc2C1 [vicagrel, Vicagrel] , Km at 1 min reported as 8.37

* * *

Target: CES2 (Homo sapiens, UniProt O00748)
Construct: purchased Cypex Ltd. (Scotland, United Kingdom)
Sequence (O00748 27-559): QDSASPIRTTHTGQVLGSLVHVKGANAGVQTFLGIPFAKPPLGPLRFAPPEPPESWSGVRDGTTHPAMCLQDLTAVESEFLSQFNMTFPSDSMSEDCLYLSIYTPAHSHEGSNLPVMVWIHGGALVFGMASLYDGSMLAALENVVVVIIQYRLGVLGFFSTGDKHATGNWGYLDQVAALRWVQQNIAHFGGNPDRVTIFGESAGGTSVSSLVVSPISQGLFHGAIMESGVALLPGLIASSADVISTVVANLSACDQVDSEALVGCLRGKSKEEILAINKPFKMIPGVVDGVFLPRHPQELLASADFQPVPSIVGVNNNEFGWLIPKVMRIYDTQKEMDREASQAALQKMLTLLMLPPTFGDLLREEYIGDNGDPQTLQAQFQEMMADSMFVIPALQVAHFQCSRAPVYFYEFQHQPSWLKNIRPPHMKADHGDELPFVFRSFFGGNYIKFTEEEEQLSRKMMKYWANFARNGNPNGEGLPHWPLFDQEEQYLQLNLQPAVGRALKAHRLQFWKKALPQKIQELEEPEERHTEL
Assay: Hydrolase activity by recombinant human CES2
Assay type: in vitro ADME
Settings: human, recombinant human CES2, pH 7.4; recombinant CES2; calculated as Vmax/Km; read-out: CLint of vicagrel hydrolysis
Measurement label: microsomal CLint (µL/min/mg)
Kindly answer with a numeric value in µL/min/mg, unit omitted.

Entry COC(=O)[C@H](c1ccccc1Cl)N1CCc2sc(OC(C)=O)cc2C1 [vicagrel, Vicagrel] , microsomal CLint reported as 46100
